Numbers sourced from ChEMBL document CHEMBL1151471.

# Tested on: Staphylococcus aureus
# ASSAY PROTOCOL: Antibacterial activity against vancomycin-resistant Staphylococcus aureus AIS2006032 isolated from patients foot wound by broth microdilution method
# Format: functional
REPORTED PROPERTY: MIC

These solved cases illustrate the format of a correct answer.
>>> value("CC[C@H]1OC(=O)[C@H](C)[C@@H](O[C@H]2C[C@@](C)(OC)[C@@H](O)[C@H](C)O2)[C@H](C)[C@@H](O[C@@H]2O[C@H](C)C[C@H](N(C)C)[C@H]2O)[C@](C)(O)C[C@@H](C)C(=O)[C@H](C)[C@@H](O)[C@]1(C)O")
"> 8 µg/mL"
>>> value("C[C@H]1COc2c(N3CCN(C)CC3)c(F)cc3c(=O)c(C(=O)O)cn1c23.C[C@H]1COc2c(N3CCN(C)CC3)c(F)cc3c(=O)c(C(=O)O)cn1c23.O")
"> 16 µg/mL"
>>> value("Cc1onc(-c2ccccc2)c1C(=O)N[C@@H]1C(=O)N2[C@@H]1SC(C)(C)[C@@H]2C(=O)O")
"> 16 µg/mL"
>>> value("C[C@H]1c2cccc(O)c2C(=O)C2=C(O)[C@]3(O)C(=O)C(C(N)=O)=C(O)[C@@H](N(C)C)[C@@H]3[C@@H](O)[C@@H]21.O")
"1 µg/mL"

# context switch: different compound, same MIC
Q: Quick one: MIC for "CCC[C@@H]1C[C@@H](C(=O)N[C@@H]([C@H]2O[C@H](SC)[C@H](O)[C@@H](O)[C@H]2O)[C@H](C)Cl)N(C)C1" ?
Ans: > 16 µg/mL
